System: MDCK cells
Assay: Cytotoxicity to MDCK cells (MTS-based assay)
Format: cell-based, canine
Conditions: 48 h, read-out: CC50 (50% cytotoxic concentration)
CC50: recorded values
# number only, unit µM dropped from output

Ask | Query (compound): COc1ccc2c(ccc3c(-c4c(OC)cc(O)c5c4ccc4cc(O)ccc45)c(OC)cc(O)c32)c1 [Compound 7] ; field requested: CC50
Reply | 130

---

IC50: recorded values
System: influenza A/Sydney/5/97 (H3N2)
Conditions: read-out: Simultaneous treatment IC50
# number only, unit µM dropped from output

Worked cases, IC50 given:
molecule	IC50 (µM)
COc1ccc2c(ccc3c(-c4c(O)cc(OC)c5c4CCc4cc(O)ccc4-5)c(O)cc(OC)c32)c1 [Compound 2]	28.6
COc1cc(O)c2c(ccc3cc(O)ccc32)c1-c1c(OC)cc(O)c2c1ccc1cc(O)ccc12 [Compound 6]	33.8
COc1ccc2c(ccc3c(-c4c(OC)cc(O)c5c4ccc4cc(O)ccc45)c(OC)cc(O)c32)c1 [Compound 7]	28.5
COc1cc(O)c2c(ccc3c(OC)c(O)ccc32)c1-c1c(OC)cc(O)c2c1ccc1c(OC)c(O)ccc12 [Compound 4]	14.6

Ask | Query (molecule): COc1ccc2c(ccc3c(-c4c(O)c(OC)cc5c4CCc4cc(O)cc(OC)c4-5)c(O)cc(OC)c32)c1 [Compound 3] ; field requested: IC50
Reply | 20.4

---

CC50: recorded values
System: MDCK cells
Experiment: Cytotoxicity to MDCK cells (MTS-based assay)
Format: cell-based, canine
Conditions: 48 h, read-out: CC50 (50% cytotoxic concentration)
# number only, unit µM dropped from output

Worked cases, CC50 given:
molecularString	numericReadout
COc1ccc2c(ccc3c(-c4c(O)c(OC)cc5c4CCc4cc(O)cc(OC)c4-5)c(O)cc(OC)c32)c1	50.3
COc1cc(O)c2c(ccc3cc(O)ccc32)c1-c1c(OC)cc(O)c2c1ccc1c(OC)cccc12	96.8
COc1cc(O)c2c(ccc3cc(O)ccc32)c1-c1c(OC)cc(O)c2c1ccc1cc(O)ccc12	106

Now for the compound whose CC50 we want.
Ask | Query (compound): COc1ccc2c(ccc3c(-c4c(O)cc(OC)c5c4CCc4cc(O)ccc4-5)c(O)cc(OC)c32)c1 ; field requested: CC50
Reply | 67.9

---

IC50: recorded values
Tested on: influenza A/Sydney/5/97 (H3N2)
Test: microbe, parasite or virus in culture
Settings: H3N2, MDCK, read-out: Post-treatment IC50
# number only, unit µM dropped from output

Ask | Query (molecule): CCOC(=O)C1=C[C@@H](OC(CC)CC)[C@H](NC(C)=O)[C@@H](N)C1 [Oseltamivir, reference compound] ; field requested: IC50
Reply | 0.9

Ask | Query (molecule): COc1ccc2c(ccc3cc(O)cc(OC)c32)c1 [Compound 10, 2-hydroxyl-4,7-dimethoxyphenanthrene] ; field requested: IC50
Reply | 42.3

---

Assay: Cytotoxicity to MDCK cells (MTS-based assay)
Format: cell-based, canine
Conditions: dog, read-out: CC50 (50% cytotoxic concentration)
CC50 at 48 h: recorded values
Express the reported value numerically, then name its unit.

Ask | Query (compound): COc1ccc2c(ccc3cc(O)cc(OC)c32)c1 [Compound 10, 2-hydroxyl-4,7-dimethoxyphenanthrene] ; field requested: CC50 at 48 h
Reply | 142 µM

Ask | Query (compound): CCOC(=O)C1=C[C@@H](OC(CC)CC)[C@H](NC(C)=O)[C@@H](N)C1 [Oseltamivir, reference compound] ; field requested: CC50 at 48 h
Reply | 599 µM

---

Tested on: MDCK cells
Assay: Cytotoxicity to MDCK cells (MTS-based assay)
Type: cell-based, canine
Conditions: 48 h, read-out: CC50 (50% cytotoxic concentration)
Description: An MTS-based assay was performed to evaluate the cytotoxic effects of the test compounds on MDCK cells. Approximately 5 × 10^4 cells/well were seeded in 96-well microplates in MEM with 10% FBS at 37 °C in a humidified 5% CO2 incubator. […] The absorbance at 490 nm was determined using a microplate reader. The cell viability was calculated using the following formula: cell viability (%) = (drug treatment – background)/(control – background) × 100%. […]
readoutName: CC50 (µM)
# number only, unit µM dropped from output

Worked cases, CC50 given:
molecule	targetSystem	CC50 / µM
COc1cc(O)cc2c1-c1ccc(O)cc1CC2	MDCK cells	201
COc1cc(O)c2c(ccc3cc(O)ccc32)c1-c1c(OC)cc(O)c2c1ccc1c(OC)c(O)ccc12	MDCK cells	111
COc1cc(O)c2c(c1)CCc1cccc(O)c1-2	MDCK cells	160
COc1cc(O)cc2ccc3cc(O)ccc3c12 [Compound 12, 2,7-dyhydroxyl-4-methoxyphenanthrene]	MDCK cells	116

Now for the molecule whose CC50 we want.
Ask | Query (molecule): COc1cc(O)c2c(ccc3c(OC)c(O)ccc32)c1-c1c(OC)cc(O)c2c1ccc1c(OC)c(O)ccc12 ; field requested: CC50
Reply | 80
